- tgt: MAGI3_6, Q5TCQ9
- Sequence (Q5TCQ9 1014-1103): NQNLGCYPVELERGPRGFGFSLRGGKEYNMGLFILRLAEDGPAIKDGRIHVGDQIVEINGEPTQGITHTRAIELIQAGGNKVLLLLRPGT
- experiment-summary: holdup assay
- Parameters: key: below the threshold = too weak to quantify, mostly under pKd 3.1 to 4
- experimental-conditions: plain residues with an end cap or a label only (N-terminal biotin on a linker: ttds)
Exercise: state measured pKd for each of the binders provided.
Respond using a number only.

Prompt: Please give the measured pKd for this binder: SSIDLWETAL [SLC15A5, A6NIM6]
Response: 4.89

Prompt: Entry to check: KLVIKTETTV [RASSF6, Q6ZTQ3]
Response: 4.15

Prompt: # repeat for SHSSKGETAV [FZD7, O75084]
Response: 4.71

meta.source: paper PMC9482650
